- test-system: p56lck GST-SH2 (lck SH2 domain) (Homo sapiens)
- Construct: GST (N)
- Sequence (P06239 127-224 limits assumed): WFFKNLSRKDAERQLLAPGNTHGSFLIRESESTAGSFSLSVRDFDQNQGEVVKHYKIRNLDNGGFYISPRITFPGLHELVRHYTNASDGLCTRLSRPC
- method: Receptor-ligand equilibrium binding constants by surface plasmon resonance (biosensor), lck SH2 domain
- measurement-parameters: Table 1, compounds of formula (II)
pKd: −log10 of the molar value.
readout-type: pKd

INSERT INTO measurements (compound, readout_type, measured_number) VALUES
  ('Cc1ccn(Cc2ccccc2)c(=O)c1NC(=O)C(Cc1ccc(C(C)(C)C(=O)O)cc1)NC(=O)Cc1ccc2ccccc2c1 (stereo not drawn)', 'pKd', 5.60);

(A) COc1ccc(Cn2ccc(C)c(NC(=O)[C@H](Cc3ccc(NC(=O)C(=O)O)cc3)NC(=O)Cc3ccc(NCC(C)(C)C)cc3)c2=O)cc1
(B) COc1ccc(Cn2ccc(C)c(NC(=O)[C@H](Cc3ccc(CC(=O)O)cc3)NC(=O)C(F)(F)F)c2=O)cc1
Prompt: Which value of pKd is greater, the one for A or the one for B ? Your choice should be expressed through its label.
Response: A

----------
- test-system: p56lck GST-SH2 (lck SH2 domain) (Homo sapiens)
- Construct: GST (N)
- method: Receptor-ligand equilibrium binding constants by surface plasmon resonance (biosensor), lck SH2 domain
- measurement-parameters: Table 1, compounds of formula (II)
pKd: −log10 of the molar value.
readout-type: pKd

INSERT INTO assay_data (compound, readout_type, measured_number) VALUES
  ('CCCCCCn1ccc(C)c(NC(=O)C(Cc2ccc(C(C)(C)C(=O)O)cc2)NC(=O)Cc2c(F)c(F)c(F)c(F)c2F)c1=O (stereo not drawn)', 'pKd', 5.89);

(P) COCCCCn1ccc(C)c(NC(=O)C(Cc2ccc(C(C)(C)C(=O)O)cc2)NC(=O)C(C)(C)c2ccc3ccccc3c2)c1=O (stereo not drawn)
(Q) COc1ccc(Cn2ccc(C)c(NC(=O)C(Cc3ccc(C(C)(C)C(=O)O)cc3)NC(=O)COc3cccc4c(N(C)C)cccc34)c2=O)cc1 (stereo not drawn)
(R) COc1ccc(Cn2ccc(C)c(NC(=O)[C@H](Cc3ccc(N(O)C(=O)C(=O)O)cc3)NC(C)=O)c2=O)cc1
(S) COc1ccc(Cn2ccc(C)c(NC(=O)[C@H](Cc3ccc(C(C)(C)C(=O)O)cc3)NC(=O)Cc3ccc4ccccc4c3)c2=O)cc1
(T) COCCOCn1ccc(C)c(NC(=O)C(Cc2ccc(C(C)(C)C(=O)O)cc2)NC(=O)Cc2ccc3ccccc3c2)c1=O (stereo not drawn)
Prompt: Which order do these items take when sorted by rising pKd? List them. Answer by listing the labels in the requested order.
Response: T, R, P, Q, S

----------
- test-system: p56lck GST-SH2 (lck SH2 domain) (Homo sapiens)
- Construct: GST (N)
- method: Receptor-ligand equilibrium binding constants by surface plasmon resonance (biosensor), lck SH2 domain
- measurement-parameters: Table 1, compounds of formula (II)
readout-type: Kd (µM)

(I) COc1ccc(Cn2ccc(C)c(NC(=O)[C@H](Cc3ccc(C(C)(C)C(=O)O)cc3)NC(=O)Cc3ccc(NCC(C)(C)C)cc3)c2=O)cc1
(II) CCCCCn1ccc(C)c(NC(=O)C(Cc2ccc(C(C)(C)C(=O)O)cc2)NC(=O)Cc2ccc3ccccc3c2)c1=O (stereo not drawn)
(III) COc1ccc(Cn2ccc(C)c(NC(=O)[C@H](Cc3ccc(C(C)(C)C(=O)O)cc3)NC(=O)[C@@H](C)c3ccc4ccccc4c3)c2=O)cc1
Prompt: Put the items above in order of decreasing Kd. Answer by listing the labels in the requested order.
Response: III, II, I

Just for reference, patent US6284768A is where these values come from.
